# Test system: TK-10 renal
# experimentDescription: NCI tumour cell line growth inhibition, 48 h
For each of the compounds below, state its TGI.

- compound: "CC1(C)C[C@@H]2C1CCC1(C)CC2(O)CC[C@H]1O (stereo partly specified)"
  TGI: "> 100 µM"
- compound: "CCOC(=O)Cn1c(=O)ccn(COCCO)c1=O"
  TGI: "> 100 µM"
- compound: "COc1ccc(-c2cc(-c3cc(C)cc(Br)c3O)no2)cc1"
  TGI: "38.5 µM"
- compound: "CCN(CC)CCSc1c2cc(OC)ccc2nc2ccc(OC)cc12"
  TGI: "22.1 µM"
- compound: "Clc1ccc(-c2cc3nc4ccccc4nc3o2)cc1"
  TGI: "> 100 µM"

Attention now turns to another entry.
Challenge: Fill in: TGI of `O=C(Nc1n[nH]c2cc(-c3ccccc3)ccc12)C1CC1` is ___
Response given: > 25 µM
